# measurementDescription: Quantitative High-Throughput drug screen in 47 multiple myeloma cell lines against the NCATS MIPE library collection: JJN3_DSMZ cell viability assay (AID 1918966; further: nearly all actives have a fitted effect of over 50% in size)
# testContext: JJN3 myeloma cells viability, CellTiter-Glo ATP, 48 h; series mostly up to 45.8 µM
Results filed as inconclusive are left out. Activity calls are given as the source filed them. The call rests on the fitted dose curve; in most records, active means well fitted cell-killing curve with a large enough effect; inconclusive means small, poorly fitted or top-dose-only effect, or effect the other way; inactive means no such curve, though single readings can be large or run the other way.
Give your call using only these classes: active, inactive

What is the recorded call for this molecule in the test? `CCOC(=O)[C@@H](N)CCC(=O)N[C@@H](CSCc1ccccc1)C(=O)N[C@@H](C(=O)OCC)c1ccccc1` active

What did this assay record as the result for `COc1cc2c(cc1OC)[C@@H]1Cc3ccc(OC)c(OC)c3CN1CC2` ? active

Which outcome was assigned to `CN[C@@H]1[C@@H](O)[C@@H](O[C@@H]2[C@@H](O)[C@H](O[C@H]3O[C@H](CN)[C@@H](O)[C@H](O)[C@@H]3O)[C@@H](N)C[C@@H]2NC(=O)[C@@H](O)CN)OC[C@]1(C)O` in this test? inactive

----------
# measurementDescription: qHTS of pediatric cancer cell lines to identify multiple opportunities for drug repurposing: Primary screen for SK-N-MC cells (AID 1347093); further: potency means the concentration at half of the fitted maximal effect
# testContext: SK-N-MC viability, CellTiter-Glo luminescence, 48 h; series mostly up to 46 µM
# Protocol: Drug repurposing or repositioning has been offered as a strategy for drug development in oncology programs. […] [1] Shen, M et al. Quantitative high-throughput phenotypic screening of pediatric cancer cell lines identifies multiple opportunities for drug repurposing. […] Cells were assayed in growth media at a density of 500-1,000 cells/well. […] After a 15 min incubation at room temperature, samples were analyzed for luminescence intensity using a ViewLux High-throughput CCD imager equipped with clear filters.
Records with an inconclusive call do not appear. Calls of active or inactive are those of the source. The call rests on the fitted dose curve; in most records, active means well fitted cell-killing curve with a large enough effect; inconclusive means small, poorly fitted or top-dose-only effect; inactive means no such curve, though single readings can be large or run the other way.
What Potency was measured for each of the following?

So what does the record say about Potency for `Cc1cccc(-c2[nH]c(C(C)(C)C)nc2-c2ccc3c(c2)OCO3)n1` ? 2.96 µM (active)

Name the reported Potency value associated with the compound `COc1ccc2ccc(=O)oc2c1CC=C(C)C` 9.35 µM (active)

Given the compound `Cc1c(C(=O)Nc2ccc(N3C[C@@H](C)O[C@@H](C)C3)nc2)cccc1-c1ccc(OC(F)(F)F)cc1` , what is its reported Potency? 16.6 µM (active)

Which Potency value belongs to `CC(C)CN(C[C@@H](O)[C@H](Cc1ccccc1)NC(=O)O[C@H]1CO[C@H]2OCC[C@H]21)S(=O)(=O)c1ccc(N)cc1` ? 2.35 µM (active)

# get_value(readout='Potency', item= CCC(C)SSc1ncc[nH]1 (configuration not stated) ) 3.72 µM (active)

For the compound `O=S(=O)(O)c1ccc2cc(N=Nc3cc(S(=O)(=O)O)c4cccnc4c3O)ccc2c1` , what Potency is on record? 18.7 µM (active)

----------
# Tested on: NIH3T3
# measurementDescription: Cytotoxic Profiling of Annotated Libraries Using Quantitative High-Throughput Screening (AID 1296008); further: nearly all actives have a fitted effect of over 60% in size
# testContext: Five cell lines viability, CellTiter-Glo ATP luminescence, 48-72 h
# Experimental: Cell-based phenotypic screening is a commonly used approach to discover biological pathways, novel drug targets, chemical probes and high-quality hit-to-lead molecules. […] A pintool (Kalypsys) was used to transfer 23 nL of compound solution to the 1536-well assay plates. […] Plates were left at room temperature for 10 min before imaging the ATP-coupled luminescence using a ViewLux microplate imager (PerkinElmer, Waltham, MA).
Inconclusive results are not listed. Activity calls are given as the source filed them. The call rests on the fitted dose curve; in most records, active means well fitted inhibition curve with a large enough effect; inconclusive means small, poorly fitted or top-dose-only effect; inactive means flat fitted curve, though single readings scatter.
Field 'call' accepts active, inactive

Dear all, I need the recorded test outcome for `O=C(c1ccc(F)c(F)c1Nc1ccc(I)cc1F)N1CC(O)([C@H]2CCCCN2)C1` , thank you. active

For `CCN1CCC(n2cc(CNc3cc(Cl)c4ncc(C#N)c(Nc5ccc(F)c(Cl)c5)c4c3)nn2)CC1` , which call appears in the assay record? inactive

What is the recorded call for this compound in the test? `Cc1[nH]c(C=C2C(=O)Nc3ccc(S(=O)(=O)N(C)c4cccc(Cl)c4)cc32)c(C)c1C(=O)N1CCN(C)CC1` active

Identify the outcome logged in this assay for the compound shown: Cc1cc2nc3c(=O)[nH]c(=O)nc-3n(CC(O)C(O)C(O)CO)c2cc1C (stereo unspecified) inactive

Write down the call the test reported for this compound. Item: `Cc1c(C(=O)Nc2ccc(N3C[C@@H](C)O[C@@H](C)C3)nc2)cccc1-c1ccc(OC(F)(F)F)cc1` active

Which result was noted for this compound in the test: `COc1ccc(-c2ccc3ncc4c(c3c2)n(-c2ccc(N3CCNCC3)c(C(F)(F)F)c2)c(=O)n4C)cn1` active

All figures here come from PubChem BioAssay (NCATS).
